target: Nav 1.7 (Homo sapiens (Human)); assay: in-vitro Nav 1.7 PX (IC50); type: cell-based; settings: in-vitro Nav 1.7 PX data
pIC50: −log10 of the molar value.
Rule: pIC50 of 7 or more gives Criterion met; anything lower gives Criterion not met.

Use the examples below as a reference point.
| COMPOUND | ASSIGNED_LABEL |
| --- | --- |
| COc1cc(-c2cnc(OC)c(Cl)c2)ccc1-n1c(=O)ccc2cc(S(=O)(=O)Nc3ccon3)ccc21 | Criterion met |
| COc1cc(F)cc(-c2ccc(-n3c(=O)ccc4cc(S(=O)(=O)Nc5ccnc(C)n5)ccc43)c(OC)c2)c1 | Criterion not met |
| COc1cc(-c2ccc(Cl)c(C)c2)c(F)cc1-n1c(=O)ccc2cc(S(=O)(=O)Nc3ncc(F)cn3)ccc21 (atropisomer, axis not shown; (P)) | Criterion met |
| COc1ccc(-c2ccc(F)c(C#N)c2)cc1-n1c(=O)ccc2cc(S(=O)(=O)Nc3ccon3)ccc21 | Criterion not met |
| COc1ccc(C2CCOCC2)cc1-n1c(=O)ccc2cc(S(=O)(=O)Nc3ccon3)ccc21 | Criterion not met |

Let's switch to this compound now.
Please indicate if the recorded pIC50 for COc1cc(C#CC2CCCC2)c(F)cc1-n1c(=O)ccc2cc(S(=O)(=O)Nc3ncco3)ccc21 meets or exceeds 7. Criterion met

====

target: Nav 1.7 (Homo sapiens (Human)); test: in-vitro Nav 1.7 PX (IC50); assay type: cell-based; settings: in-vitro PatchXpress (PX)
Note to self: use Y only for IC50 readings below 1 µM; a reading exactly at 1 µM still gets N.

See these solved cases before continuing.
| COMPOUND | ASSIGNED_LABEL |
| --- | --- |
| COc1cc(-c2cncc(Cl)c2)c(F)cc1-n1c(=O)ccc2cc(S(=O)(=O)Nc3ccon3)ccc21 (atropisomer, axis not shown; (M)) [Example 409] | Y |
| COc1cc(-c2cc(Cl)cc(C#N)c2)c(F)cc1-n1c(=O)ccc2cc(S(=O)(=O)Nc3ccon3)ccc21 (atropisomer, axis not shown; (P)) [Example 518] | N |
| COc1cc(-c2ccc(Cl)c(C)c2)ccc1-n1c(=O)ccc2cc(S(=O)(=O)Nc3cccnn3)ccc21 (atropisomer, axis not shown; (M)) [Example 372] | Y |
| COc1cc(-c2ccc(C#N)c(Cl)c2)c(F)cc1-n1c(=O)ccc2cc(S(=O)(=O)Nc3ccon3)ccc21 (atropisomer, axis not shown; (M)) [Example 521] | N |

Is it true that IC50 reported for COc1cc(-c2cc(F)cnc2OC)c(F)cc1-n1c(=O)ccc2cc(S(=O)(=O)Nc3ccon3)ccc21 is less than 1 µM? Y

====

molecular target: Nav 1.7 (Homo sapiens (Human)); test: in-vitro Nav 1.7 PX (IC50); format: cell-based; conditions: in-vitro Nav 1.7 PX data
ENDPOINT_LABEL: pIC50
Numbers only, as −log10 of the molar value.

// worked examples, pIC50 included
| COMPOUND | TEST_VALUE |
| --- | --- |
| COc1cc(-c2cccc(OC(C)C)c2)ccc1-n1c(=O)ccc2cc(S(=O)(=O)Nc3ncc(F)cn3)ccc21 [Example 827] | 6.75 |
| COc1nc(-c2cccc(C#N)c2)c(Cl)cc1-n1c(=O)ccc2cc(S(=O)(=O)Nc3ccon3)ccc21 [Example 1091] | 4.69 |
| COc1cc(-c2ccc(F)cc2)c(F)cc1-n1c(=O)ccc2cc(S(=O)(=O)Nc3cccnn3)ccc21 [Example 770] | 7.48 |

Look at each compound and report its pIC50.
1. COc1ccc(-c2ccc(C(F)(F)F)cc2)cc1-n1c(=O)ccc2cc(S(=O)(=O)Nc3ccon3)ccc21 [Example 856]
2. COc1ccc(-c2ccc(F)c(C)c2)cc1-n1c(=O)ccc2cc(S(=O)(=O)Nc3ccon3)ccc21 [Example 878]

7.46
7.68

Please state pIC50 for every compound in the list that follows.
1. COc1cc(-c2ccc(Cl)cn2)c(F)cc1-n1c(=O)ccc2cc(S(=O)(=O)Nc3ccon3)ccc21 [Example 800]
2. COc1ccc(-c2ccc(Cl)c(C)c2)cc1-n1c(=O)ccc2cc(S(=O)(=O)Nc3ccon3)ccc21 [Example 872]

1: 6.60; 2: 4.94

====

target: Nav 1.7 (Homo sapiens (Human), UniProt Q15858); assay: in-vitro Nav 1.7 PX (IC50); format: cell-based; details: in-vitro Nav 1.7 PX data
Sequence (Q15858 whole entry): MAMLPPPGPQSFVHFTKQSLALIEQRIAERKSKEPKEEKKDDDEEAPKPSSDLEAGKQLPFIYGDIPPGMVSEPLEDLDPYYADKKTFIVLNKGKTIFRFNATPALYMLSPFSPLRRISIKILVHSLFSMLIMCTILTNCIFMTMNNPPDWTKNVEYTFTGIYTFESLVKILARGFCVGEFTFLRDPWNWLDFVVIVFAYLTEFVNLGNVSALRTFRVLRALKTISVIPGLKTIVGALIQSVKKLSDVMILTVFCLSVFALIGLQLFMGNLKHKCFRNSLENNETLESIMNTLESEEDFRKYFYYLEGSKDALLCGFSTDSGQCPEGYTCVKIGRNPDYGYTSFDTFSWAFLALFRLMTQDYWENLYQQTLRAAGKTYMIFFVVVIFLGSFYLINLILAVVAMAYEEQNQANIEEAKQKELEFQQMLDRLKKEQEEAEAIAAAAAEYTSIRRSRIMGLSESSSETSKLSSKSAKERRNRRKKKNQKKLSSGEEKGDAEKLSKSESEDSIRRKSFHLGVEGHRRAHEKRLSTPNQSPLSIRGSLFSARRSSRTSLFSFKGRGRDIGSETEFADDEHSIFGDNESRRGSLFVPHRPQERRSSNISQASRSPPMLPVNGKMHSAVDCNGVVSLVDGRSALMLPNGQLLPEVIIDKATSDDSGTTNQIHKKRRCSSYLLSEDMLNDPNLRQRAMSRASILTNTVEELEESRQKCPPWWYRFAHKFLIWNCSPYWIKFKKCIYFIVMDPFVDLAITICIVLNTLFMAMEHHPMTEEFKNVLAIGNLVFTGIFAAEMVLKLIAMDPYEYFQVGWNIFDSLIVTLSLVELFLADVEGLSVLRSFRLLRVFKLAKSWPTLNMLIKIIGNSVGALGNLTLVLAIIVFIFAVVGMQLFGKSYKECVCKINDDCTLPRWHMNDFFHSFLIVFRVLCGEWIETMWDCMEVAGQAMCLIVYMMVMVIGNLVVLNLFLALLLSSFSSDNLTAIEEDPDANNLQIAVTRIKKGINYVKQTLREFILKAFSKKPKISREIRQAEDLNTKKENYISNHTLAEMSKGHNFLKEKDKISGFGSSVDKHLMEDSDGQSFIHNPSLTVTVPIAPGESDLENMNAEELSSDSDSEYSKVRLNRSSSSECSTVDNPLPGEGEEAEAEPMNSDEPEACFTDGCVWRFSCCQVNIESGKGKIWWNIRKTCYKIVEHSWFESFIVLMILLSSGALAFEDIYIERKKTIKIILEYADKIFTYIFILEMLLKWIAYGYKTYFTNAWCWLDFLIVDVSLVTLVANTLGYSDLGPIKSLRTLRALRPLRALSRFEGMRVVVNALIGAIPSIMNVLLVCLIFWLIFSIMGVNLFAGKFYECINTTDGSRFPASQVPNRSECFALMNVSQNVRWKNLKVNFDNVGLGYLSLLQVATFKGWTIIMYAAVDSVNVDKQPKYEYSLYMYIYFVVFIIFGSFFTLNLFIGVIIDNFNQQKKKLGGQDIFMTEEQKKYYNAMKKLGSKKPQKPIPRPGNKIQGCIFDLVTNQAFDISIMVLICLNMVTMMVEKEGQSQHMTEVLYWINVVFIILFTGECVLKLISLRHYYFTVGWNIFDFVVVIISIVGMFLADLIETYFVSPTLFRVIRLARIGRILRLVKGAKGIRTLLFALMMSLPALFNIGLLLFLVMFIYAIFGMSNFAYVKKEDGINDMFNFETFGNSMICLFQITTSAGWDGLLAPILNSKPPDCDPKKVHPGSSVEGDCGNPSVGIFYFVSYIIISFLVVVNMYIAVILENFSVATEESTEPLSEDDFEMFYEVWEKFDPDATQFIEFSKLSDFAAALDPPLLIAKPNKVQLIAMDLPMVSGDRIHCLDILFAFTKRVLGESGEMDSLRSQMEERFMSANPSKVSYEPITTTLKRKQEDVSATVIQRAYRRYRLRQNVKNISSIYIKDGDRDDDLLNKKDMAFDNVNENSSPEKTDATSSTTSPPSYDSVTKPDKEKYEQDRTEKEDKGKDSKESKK
ENDPOINT_LABEL: pIC50
Numbers only, as −log10 of the molar value.

| MOLECULE | ENDPOINT_LABEL | TEST_VALUE |
| --- | --- | --- |
| COc1cc(-c2ccc(C)c(F)c2)c(F)cc1-n1c(=O)ccc2cc(S(=O)(=O)Nc3ncccn3)ccc21 | pIC50 | 7.24 |
| COc1ccc(-c2cc(F)cc(Cl)c2)cc1-n1c(=O)ccc2cc(S(=O)(=O)Nc3cnccn3)ccc21 [Example 876] | pIC50 | 6.69 |
| COc1cc(-c2ccc(Cl)cc2)c(F)cc1-n1c(=O)ccc2cc(S(=O)(=O)Nc3ncc(F)cn3)ccc21 | pIC50 | 8.00 |

Then there is this molecule:
Which pIC50 is reported for this molecule? COc1cc(-c2cc(OC)c(-n3c(=O)ccc4cc(S(=O)(=O)Nc5ccnc(C)n5)ccc43)cc2F)ccc1F 6.68

====

target: Nav 1.7 (Homo sapiens (Human)); experiment: in-vitro Nav 1.7 PX (IC50); assay type: cell-based; conditions: in-vitro Nav 1.7 PX data
Exercise: state measured IC50 for each of the molecules provided.
The number alone won't do; follow it with the unit.

Look over these answered cases.
| MOLECULE | ENDPOINT_LABEL | TEST_VALUE |
| --- | --- | --- |
| COc1cc(-c2cc(F)cc(C(F)(F)F)c2)ccc1-n1c(=O)ccc2cc(S(=O)(=O)Nc3cccnn3)ccc21 [Example 1095] | IC50 | 6 nM |
| COc1cc(-c2ccc(OC)c(-n3c(=O)ccc4cc(S(=O)(=O)Nc5ccon5)ccc43)c2)ccc1F [Example 889] | IC50 | 184 nM |
| COc1cc(-c2cccc(C(F)(F)F)c2)ccc1-n1c(=O)ccc2cc(S(=O)(=O)Nc3ncco3)ccc21 [Example 916] | IC50 | 50 nM |

Would you be so kind as to report IC50 for each listed record?
1. COc1cc(-c2ccc(Cl)cc2)c(F)cc1-n1c(=O)ccc2cc(S(=O)(=O)Nc3ccon3)ccc21 [634/675]
2. COc1ccc(-c2ccc(OC)c(-n3c(=O)ccc4cc(S(=O)(=O)Nc5ccon5)ccc43)c2)cc1Cl [Example 884]
3. COc1cc(-c2ccc(-n3c(=O)ccc4cc(S(=O)(=O)Nc5ccon5)ccc43)c(OC)c2)ccc1Cl [Example 1027]
4. COc1ccc(-c2cc(F)cc(Cl)c2)cc1-n1c(=O)ccc2cc(S(=O)(=O)Nc3cnccn3)ccc21 [Example 860]

13 nM
35 nM
32 nM
251 nM

====

biological target: Nav 1.7 (Homo sapiens (Human), UniProt Q15858); assay: in-vitro Nav 1.7 PX (IC50); format: cell-based; conditions: in-vitro PatchXpress (PX)
ENDPOINT_LABEL: IC50 (nM)
Numbers only, in nM.

Known IC50 results, listed for orientation:
| COMPOUND | MEASURED_TARGET | IC50 (nM) |
| --- | --- | --- |
| COc1cc(-c2ccc(Cl)c(C)c2)c(Cl)cc1-n1c(=O)ccc2cc(S(=O)(=O)Nc3ccncn3)ccc21 (atropisomer, axis not shown; (P)) [Example 367] | Nav 1.7 (Homo sapiens (Human), UniProt Q15858) | 3 |
| COc1cc(-c2cccc(C)c2)c(F)cc1-n1c(=O)ccc2cc(S(=O)(=O)Nc3ccon3)ccc21 (atropisomer, axis not shown; (P)) [Example 522] | Nav 1.7 (Homo sapiens (Human), UniProt Q15858) | 9 |
| COc1cc(-c2ccc(Cl)c(C)c2)c(Cl)cc1-n1c(=O)ccc2cc(S(=O)(=O)Nc3ccncn3)ccc21 (atropisomer, axis not shown; (M)) [Example 368] | Nav 1.7 (Homo sapiens (Human), UniProt Q15858) | 677 |
| COc1cc(-c2ccc(F)c(Cl)c2)c(F)cc1-n1c(=O)ccc2cc(S(=O)(=O)Nc3ccon3)ccc21 (atropisomer, axis not shown; (M)) [Example 366] | Nav 1.7 (Homo sapiens (Human), UniProt Q15858) | 1260 |

Then this compound:
Consider the compound COc1cc(-c2ccc(C)c(C#N)c2)c(F)cc1-n1c(=O)ccc2cc(S(=O)(=O)Nc3ccon3)ccc21 (atropisomer, axis not shown; (M)) [Example 525] and give its measured IC50. 4840

====

target: Nav 1.7 (Homo sapiens (Human)); experiment: in-vitro Nav 1.7 PX (IC50); type: cell-based; settings: in-vitro Nav 1.7 PX data
ENDPOINT_LABEL: pIC50
Give bare numbers, as −log10 of the molar value.

| COMPOUND | pIC50 |
| --- | --- |
| COc1nc(-c2cc(F)cc(Cl)c2)c(Cl)cc1-n1c(=O)ccc2cc(S(=O)(=O)Nc3ccon3)ccc21 [Example 1071] | 6.46 |

Can you give me pIC50 for all of these, one by one?
1. COc1cc([C@H]2CC[C@@H](C)CC2)c(F)cc1-n1c(=O)ccc2cc(S(=O)(=O)Nc3ccon3)ccc21
2. COc1ccc(-c2cc(F)cc(Cl)c2)cc1-n1c(=O)ccc2cc(S(=O)(=O)Nc3ccncn3)ccc21 (atropisomer, axis not shown; (M)) [Example 612]

8.00
6.45
